Could you please report measured Activity for the items listed next?
Biological target: Protein cereblon/Glycogen synthase kinase-3 beta (Homo sapiens, UniProt P49841+Q96SW2)
Sequence (P49841 whole entry, looked up): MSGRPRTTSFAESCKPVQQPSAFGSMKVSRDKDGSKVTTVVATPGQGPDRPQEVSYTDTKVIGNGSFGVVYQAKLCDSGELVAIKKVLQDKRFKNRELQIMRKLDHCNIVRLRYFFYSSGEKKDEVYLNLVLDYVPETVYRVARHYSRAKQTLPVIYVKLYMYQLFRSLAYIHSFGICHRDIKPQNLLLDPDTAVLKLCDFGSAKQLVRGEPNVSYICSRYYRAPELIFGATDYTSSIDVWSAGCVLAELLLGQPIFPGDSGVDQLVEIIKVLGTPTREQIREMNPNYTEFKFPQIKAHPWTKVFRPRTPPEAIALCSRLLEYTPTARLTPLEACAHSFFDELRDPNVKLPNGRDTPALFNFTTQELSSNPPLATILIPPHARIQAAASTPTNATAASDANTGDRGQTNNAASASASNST
Sequence (Q96SW2 whole entry, looked up): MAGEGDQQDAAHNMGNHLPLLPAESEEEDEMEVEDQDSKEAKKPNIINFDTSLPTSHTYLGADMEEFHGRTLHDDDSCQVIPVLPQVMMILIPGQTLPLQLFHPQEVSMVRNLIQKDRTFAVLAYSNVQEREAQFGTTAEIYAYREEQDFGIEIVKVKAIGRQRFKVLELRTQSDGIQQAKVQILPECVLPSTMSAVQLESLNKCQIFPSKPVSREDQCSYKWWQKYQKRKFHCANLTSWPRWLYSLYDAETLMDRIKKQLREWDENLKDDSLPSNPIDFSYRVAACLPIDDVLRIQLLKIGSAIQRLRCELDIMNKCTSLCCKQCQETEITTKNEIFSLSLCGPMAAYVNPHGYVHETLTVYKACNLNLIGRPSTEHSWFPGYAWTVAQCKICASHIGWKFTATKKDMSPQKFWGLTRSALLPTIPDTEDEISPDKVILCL
Experiment: Protac activity at CRBN/GSK3beta in human SH-SY5Y cells assessed as induction of GSK3beta degradation at 0.1 uM measured after 24 hrs
Format: cell-based
A complete answer gives the number followed by the unit.

Could you share which Activity value was measured for Nc1ncc(-c2ccc(S(=O)(=O)N3CCN(CCc4cn(CCOCCOCCOCCNc5cccc6c5C(=O)N(C5CCC(=O)NC5=O)C6=O)nn4)CC3)cc2)nc1C(=O)Nc1cccnc1 (stereo not drawn) ?
51.6%

Could you share which Activity value was measured for Nc1ncc(-c2ccc(S(=O)(=O)N3CCN(Cc4cn(CCOCCOCCOCCNc5cccc6c5C(=O)N(C5CCC(=O)NC5=O)C6=O)nn4)CC3)cc2)nc1C(=O)Nc1cccnc1 (stereo not drawn) ?
29.9%

Could you share which Activity value was measured for Nc1ncc(-c2ccc(S(=O)(=O)N3CCN(Cc4cn(CCOCCOCCNc5cccc6c5C(=O)N(C5CCC(=O)NC5=O)C6=O)nn4)CC3)cc2)nc1C(=O)Nc1cccnc1 (stereo not drawn) ?
30.5%

Could you share which Activity value was measured for Nc1ncc(-c2ccc(S(=O)(=O)N3CCN(CCc4cn(CCOCCOCCOCCOCCOCCOCCNc5cccc6c5C(=O)N(C5CCC(=O)NC5=O)C6=O)nn4)CC3)cc2)nc1C(=O)Nc1cccnc1 (stereo not drawn) ?
55.9%

Could you share which Activity value was measured for Nc1ncc(-c2ccc(S(=O)(=O)N3CCN(CCCCc4cn(CCOCCOCCOCCOCCOCCNc5cccc6c5C(=O)N(C5CCC(=O)NC5=O)C6=O)nn4)CC3)cc2)nc1C(=O)Nc1cccnc1 (stereo not drawn) ?
67.1%

Could you share which Activity value was measured for Nc1ncc(-c2ccc(S(=O)(=O)N3CCN(Cc4cn(CCOCCOCCOCCOCCOCCNc5cccc6c5C(=O)N(C5CCC(=O)NC5=O)C6=O)nn4)CC3)cc2)nc1C(=O)Nc1cccnc1 (stereo not drawn) ?
28.9%

Could you share which Activity value was measured for Nc1ncc(-c2ccc(S(=O)(=O)N3CCN(CCCCc4cn(CCOCCOCCOCCNc5cccc6c5C(=O)N(C5CCC(=O)NC5=O)C6=O)nn4)CC3)cc2)nc1C(=O)Nc1cccnc1 (stereo not drawn) ?
54.6%

Could you share which Activity value was measured for Nc1ncc(-c2ccc(S(=O)(=O)N3CCN(CCc4cn(CCOCCOCCNc5cccc6c5C(=O)N(C5CCC(=O)NC5=O)C6=O)nn4)CC3)cc2)nc1C(=O)Nc1cccnc1 (stereo not drawn) ?
41.9%
